Test: Metabolic stability of exemplified compounds (Example 4)
Assay type: in vitro ADME
Conditions: Mouse liver microsomes
quantity name: Extr (EH)

In the examples that follow, each entry is paired with its recorded Extr (EH).
>  <mol smiles>
N#Cc1nc(-c2cc(Cl)cc(Cl)c2Cl)oc1NCCOCCO

>  <Extr (EH)>
* (“*” <50%)

$$$$
>  <mol smiles>
COCCOCCNc1oc(-c2cc(Cl)cc(Cl)c2Cl)nc1C#N

>  <Extr (EH)>
* (“*” <50%)

$$$$
>  <mol smiles>
COCCOCCCCNc1oc(-c2cc(Cl)cc(Cl)c2Cl)nc1C#N

>  <Extr (EH)>
** (“**” 50-100%)

$$$$
>  <mol smiles>
COCCOCCOCCNc1oc(-c2cc(Cl)cc(Cl)c2Cl)nc1C#N

>  <Extr (EH)>
** (“**” 50-100%)

$$$$

Alright, here's another molecule for you.
Note Extr (EH) for the molecule shown: N#Cc1nc(-c2cc(Cl)cc(Cl)c2Cl)oc1NCCCO
** (“**” 50-100%)

Where these numbers come from: patent US20240336642A1
